System: albumin in rat plasma
Assay: Plasma protein binding (PPB) test by ultrafiltration
Type: in vitro ADME
Conditions: 177Lu-labeled compound
Metric Name: plasma protein binding ratio (albumin binding ratio) (%)
Dear colleague, please return just the value in %, with no unit written.

Sample O=C(O)CC[C@H](NC(=O)N[C@@H](CCCCNC(=O)[C@H](Cc1ccc2ccccc2c1)NC(=O)c1ccc2c(c1)CCN(C(=O)CN1CCN(CC(=O)O)CCN(CC(=O)O)CCN(CC(=O)O)CC1)C2)C(=O)O)C(=O)O [Compound E-3, reference compound] — what was its plasma protein binding ratio (albumin binding ratio)?
86.61

Data origin, for the record: patent US20250108139A1
